Values compiled from paper PMC5645029.

target: mMC4R (Mus musculus, UniProt P56450); test: AlphaScreen cAMP assay, agonist activity; details: up to 100 μM concentrations
Sequence (P56450 whole entry): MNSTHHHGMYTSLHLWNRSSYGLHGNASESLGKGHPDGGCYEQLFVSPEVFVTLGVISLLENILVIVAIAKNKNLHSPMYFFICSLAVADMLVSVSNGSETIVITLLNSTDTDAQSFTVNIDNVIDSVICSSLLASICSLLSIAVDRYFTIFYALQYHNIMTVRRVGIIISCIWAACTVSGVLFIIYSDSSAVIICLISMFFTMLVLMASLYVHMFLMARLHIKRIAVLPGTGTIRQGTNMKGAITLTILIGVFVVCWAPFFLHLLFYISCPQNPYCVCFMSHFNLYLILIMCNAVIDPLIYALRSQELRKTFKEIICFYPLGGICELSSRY
Non-standard residues stand in square brackets, D forms with d. Residues, ends and D or L forms follow the SMILES beside them.
recorded_metric: agonist activity at the MC4R (in words)

{"columns": ["compound", "recorded_result"],
 "data": [
  ["C[C@@H]1NC(=O)[C@@H](CN)NC(=O)[C@H](Cc2ccccc2)NC(=O)[C@H](Cc2ccccc2)NC(=O)[C@H](CCCNC(=N)N)NC(=O)[C@@H]2CCCN2C(=O)[C@H]2CCCN2C(=O)[C@H](Cc2ccccc2)NC1=O [Peptide 9, c[Pro-Arg-Phe-Phe-DDap-Ala-Phe-DPro]]", "no agonist activity"],
  ["C[C@@H]1NC(=O)[C@H]([C@@H](C)O)NC(=O)[C@H](Cc2ccccc2)NC(=O)[C@H](Cc2ccccc2)NC(=O)[C@H](CCCNC(=N)N)NC(=O)[C@@H]2CCCN2C(=O)[C@H]2CCCN2C(=O)[C@H](Cc2ccccc2)NC1=O [Peptide 6, c[Pro-Arg-Phe-Phe-Thr-Ala-Phe-DPro]] (cyclo(RFFTAF[dP]P))", "No agonist activity"],
  ["C[C@@H]1NC(=O)[C@H](CC(=O)O)NC(=O)[C@H](Cc2ccccc2)NC(=O)[C@H](Cc2ccccc2)NC(=O)[C@H](CCCNC(=N)N)NC(=O)[C@@H]2CCCN2C(=O)[C@H]2CCCN2C(=O)[C@H](Cc2ccccc2)NC1=O [Peptide 7, c[Pro-Arg-Phe-Phe-Asp-Ala-Phe-DPro]]", "no agonist activity"],
  ["C[C@@H]1NC(=O)[C@H](Cc2c[nH]cn2)NC(=O)[C@H](Cc2ccccc2)NC(=O)[C@H](Cc2ccccc2)NC(=O)[C@H](CCCNC(=N)N)NC(=O)[C@@H]2CCCN2C(=O)[C@H]2CCCN2C(=O)[C@H](Cc2ccccc2)NC1=O [Peptide 10, c[Pro-Arg-Phe-Phe-His-Ala-Phe-DPro]]", "no agonist activity"]
]}

Input: Param readout = agonist activity at the MC4R (in words); param system = mMC4R (Mus musculus, UniProt P56450); param query = C[C@@H]1NC(=O)[C@H](CO)NC(=O)[C@H](Cc2ccccc2)NC(=O)[C@H](Cc2ccccc2)NC(=O)[C@H](CCCNC(=N)N)NC(=O)[C@@H]2CCCN2C(=O)[C@H]2CCCN2C(=O)[C@H](Cc2ccccc2)NC1=O [Peptide 5, c[Pro-Arg-Phe-Phe-Ser-Ala-Phe-DPro]] ; response: value
Output: No agonist activity

* * *

biological target: mMC4R (Mus musculus); details: antagonist potency relative to 1
Non-standard residues stand in square brackets, D forms with d. Residues, ends and D or L forms follow the SMILES beside them.
recorded_metric: fold less potent at the MC4R compared to 1

Worked set:
{"columns": ["molecule", "recorded_result"],
 "data": [
  ["CC(C)[C@@H]1NC(=O)[C@H](Cc2ccccc2)NC(=O)[C@H](Cc2ccccc2)NC(=O)[C@H](CCCNC(=N)N)NC(=O)[C@@H]2CCCN2C(=O)[C@H]2CCCN2C(=O)[C@H](Cc2ccccc2)NC(=O)[C@H](C)NC1=O [Peptide 13, c[Pro-Arg-Phe-Phe-Val-Ala-Phe-DPro]]", "at least 8 fold"],
  ["CC(C)C[C@@H]1NC(=O)[C@H](Cc2ccccc2)NC(=O)[C@H](Cc2ccccc2)NC(=O)[C@H](CCCNC(=N)N)NC(=O)[C@@H]2CCCN2C(=O)[C@H]2CCCN2C(=O)[C@H](Cc2ccccc2)NC(=O)[C@H](C)NC1=O [Peptide 12, c[Pro-Arg-Phe-Phe-Leu-Ala-Phe-DPro]] (cyclo(RFFLAF[dP]P))", "at least 8 fold"],
  ["C[C@@H]1NC(=O)[C@H](CCC(=O)O)NC(=O)[C@H](Cc2ccccc2)NC(=O)[C@H](Cc2ccccc2)NC(=O)[C@H](CCCNC(=N)N)NC(=O)[C@@H]2CCCN2C(=O)[C@H]2CCCN2C(=O)[C@H](Cc2ccccc2)NC1=O [Peptide 8, c[Pro-Arg-Phe-Phe-Glu-Ala-Phe-DPro]]", "16 fold"],
  ["CCCC[C@@H]1NC(=O)[C@H](Cc2ccccc2)NC(=O)[C@H](Cc2ccccc2)NC(=O)[C@H](CCCNC(=N)N)NC(=O)[C@@H]2CCCN2C(=O)[C@H]2CCCN2C(=O)[C@H](Cc2ccccc2)NC(=O)[C@H](C)NC1=O [Peptide 11, c[Pro-Arg-Phe-Phe-Nle-Ala-Phe-DPro]]", "at least 8 fold"]
]}

Let us examine a further case.
Input: Notebook entry, mMC4R (Mus musculus) assay: fold less potent at the MC4R compared to 1 of C[C@@H]1NC(=O)[C@H](C)NC(=O)[C@H](Cc2ccccc2)NC(=O)[C@H](Cc2ccccc2)NC(=O)[C@H](CCCNC(=N)N)NC(=O)[C@@H]2CCCN2C(=O)[C@H]2CCCN2C(=O)[C@H](Cc2ccccc2)NC1=O [Peptide 3, c[Pro-Arg-Phe-Phe-Ala-Ala-Phe-DPro]] = ?
Output: 8 fold

* * *

Listing: EC50 of selected molecules
target: mMC5R (Mus musculus, UniProt P41149); experiment: cell-based
Sequence (P41149 whole entry): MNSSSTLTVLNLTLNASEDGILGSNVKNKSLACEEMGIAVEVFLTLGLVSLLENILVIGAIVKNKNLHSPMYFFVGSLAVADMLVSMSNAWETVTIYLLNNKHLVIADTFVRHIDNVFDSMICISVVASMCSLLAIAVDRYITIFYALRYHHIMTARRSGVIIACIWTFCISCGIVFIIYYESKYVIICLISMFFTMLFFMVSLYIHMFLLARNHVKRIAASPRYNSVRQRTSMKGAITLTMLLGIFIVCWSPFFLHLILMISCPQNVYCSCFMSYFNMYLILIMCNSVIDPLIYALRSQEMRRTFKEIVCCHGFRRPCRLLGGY
Non-standard residues stand in square brackets, D forms with d. Residues, ends and D or L forms follow the SMILES beside them.
Hi! Could you send only the number? It should be in nM, unit omitted.

{"columns": ["molecule", "EC50 (nM)"],
 "data": [
  ["CC[C@@H]1NC(=O)[C@H](Cc2ccccc2)NC(=O)[C@H](Cc2ccccc2)NC(=O)[C@H](CCCNC(=N)N)NC(=O)[C@@H]2CCCN2C(=O)[C@H]2CCCN2C(=O)[C@H](Cc2ccccc2)NC(=O)[C@H](C)NC1=O [Peptide 4, c[Pro-Arg-Phe-Phe-Abu-Ala-Phe-DPro]]", 160],
  ["C[C@@H]1NC(=O)[C@H]([C@@H](C)O)NC(=O)[C@H](Cc2ccccc2)NC(=O)[C@H](Cc2ccccc2)NC(=O)[C@H](CCCNC(=N)N)NC(=O)[C@@H]2CCCN2C(=O)[C@H]2CCCN2C(=O)[C@H](Cc2ccccc2)NC1=O [Peptide 6, c[Pro-Arg-Phe-Phe-Thr-Ala-Phe-DPro]] (cyclo(RFFTAF[dP]P))", 50],
  ["CC(C)C[C@@H]1NC(=O)[C@H](Cc2ccccc2)NC(=O)[C@H](Cc2ccccc2)NC(=O)[C@H](CCCNC(=N)N)NC(=O)[C@@H]2CCCN2C(=O)[C@H]2CCCN2C(=O)[C@H](Cc2ccccc2)NC(=O)[C@H](C)NC1=O [Peptide 12, c[Pro-Arg-Phe-Phe-Leu-Ala-Phe-DPro]] (cyclo(RFFLAF[dP]P))", 110],
  ["CC(C)[C@@H]1NC(=O)[C@H](Cc2ccccc2)NC(=O)[C@H](Cc2ccccc2)NC(=O)[C@H](CCCNC(=N)N)NC(=O)[C@@H]2CCCN2C(=O)[C@H]2CCCN2C(=O)[C@H](Cc2ccccc2)NC(=O)[C@H](C)NC1=O [Peptide 13, c[Pro-Arg-Phe-Phe-Val-Ala-Phe-DPro]]", 510],
  ["C[C@@H]1NC(=O)[C@H](CCC(=O)O)NC(=O)[C@H](Cc2ccccc2)NC(=O)[C@H](Cc2ccccc2)NC(=O)[C@H](CCCNC(=N)N)NC(=O)[C@@H]2CCCN2C(=O)[C@H]2CCCN2C(=O)[C@H](Cc2ccccc2)NC1=O [Peptide 8, c[Pro-Arg-Phe-Phe-Glu-Ala-Phe-DPro]]", 700],
  ["C[C@@H]1NC(=O)[C@H](Cc2c[nH]cn2)NC(=O)[C@H](Cc2ccccc2)NC(=O)[C@H](Cc2ccccc2)NC(=O)[C@H](CCCNC(=N)N)NC(=O)[C@@H]2CCCN2C(=O)[C@H]2CCCN2C(=O)[C@H](Cc2ccccc2)NC1=O [Peptide 10, c[Pro-Arg-Phe-Phe-His-Ala-Phe-DPro]]", 10],
  ["C[C@@H]1NC(=O)[C@@H](CN)NC(=O)[C@H](Cc2ccccc2)NC(=O)[C@H](Cc2ccccc2)NC(=O)[C@H](CCCNC(=N)N)NC(=O)[C@@H]2CCCN2C(=O)[C@H]2CCCN2C(=O)[C@H](Cc2ccccc2)NC1=O [Peptide 9, c[Pro-Arg-Phe-Phe-DDap-Ala-Phe-DPro]]", 110]
]}

Input: Endpoint output: EC50 of C[C@@H]1NC(=O)[C@H](Cc2c[nH]c3ccccc23)NC(=O)[C@H](Cc2ccccc2)NC(=O)[C@H](Cc2ccccc2)NC(=O)[C@H](CCCNC(=N)N)NC(=O)[C@@H]2CCCN2C(=O)[C@H]2CCCN2C(=O)[C@H](Cc2ccccc2)NC1=O [Peptide 15, c[Pro-Arg-Phe-Phe-Trp-Ala-Phe-DPro]] (cyclo(RFFWAF[dP]P)) . Value?
Output: 150
